Below: a set of entries, each annotated with reported pIC50.
Target: alpha 4 beta 1 integrin (human (endogenous in Jurkat, Ramos, …, UniProt P13612;P05556))
Experiment: cell adhesion assay
pIC50: −log10 of the molar value.

Binder	pIC50
LHGPEILDVPST [B12 peptide]	3.40
EILDV [EILDV peptide]	3.18
GPEILDVPST [GPEILDVPST peptide]	3.35
